Listing of recorded Histamine Binding (1 μM) H1, percent inhibition of specific binding by entry.
molecular target: histamine receptor H1 (Homo sapiens, UniProt P35367); experiment: Histamine H1 radioligand binding ([3H]Pyrilamine); details: 1 μM
Sequence (P35367 whole entry): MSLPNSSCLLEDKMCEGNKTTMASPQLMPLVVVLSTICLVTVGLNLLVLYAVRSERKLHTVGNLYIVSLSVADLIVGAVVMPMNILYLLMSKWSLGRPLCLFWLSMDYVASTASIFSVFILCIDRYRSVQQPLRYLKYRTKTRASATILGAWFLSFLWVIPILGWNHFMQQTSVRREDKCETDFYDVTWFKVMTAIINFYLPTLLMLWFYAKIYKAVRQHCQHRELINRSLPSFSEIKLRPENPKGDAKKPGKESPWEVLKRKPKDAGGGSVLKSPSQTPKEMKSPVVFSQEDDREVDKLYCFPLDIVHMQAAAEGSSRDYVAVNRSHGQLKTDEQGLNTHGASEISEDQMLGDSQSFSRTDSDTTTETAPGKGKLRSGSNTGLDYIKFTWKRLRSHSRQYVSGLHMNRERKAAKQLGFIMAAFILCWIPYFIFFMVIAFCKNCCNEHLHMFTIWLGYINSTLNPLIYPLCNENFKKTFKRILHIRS
experimental.endpoint: Histamine Binding (1 μM) H1, percent inhibition of specific binding (%)

molecule: C/C(=C\n1c2c(c3cc(Cl)ccc31)CN(C)CC2)c1ccncc1
target.of.assay: histamine receptor H1 (Homo sapiens, UniProt P35367)
numeric.result: 59

molecule: CCC(O)(Cn1c2c(c3cc(Cl)ccc31)CN(C)CC2)c1ccc(F)cc1 (stereo not drawn)
target.of.assay: histamine receptor H1 (Homo sapiens, UniProt P35367)
numeric.result: 69

molecule: CCC/C=C(/Cn1c2c(c3cc(Cl)ccc31)CN(C)CC2)c1ccc(F)cc1
target.of.assay: histamine receptor H1 (Homo sapiens, UniProt P35367)
numeric.result: 80

molecule: C/C(=C\n1c2c(c3cccc(F)c31)CN(C)CC2)c1ccncc1
target.of.assay: histamine receptor H1 (Homo sapiens, UniProt P35367)
numeric.result: 11

molecule: CCOC(=O)/C=C(/Cn1c2c(c3cc(C)ccc31)CN(C)CC2)c1ccc(F)cc1
target.of.assay: histamine receptor H1 (Homo sapiens, UniProt P35367)
numeric.result: 37

molecule: CC(=Cn1c2c(c3cc(Cl)ccc31)CN(C)CC2)c1ccc(F)cc1F (stereo in doubt)
target.of.assay: histamine receptor H1 (Homo sapiens, UniProt P35367)
numeric.result: 88

molecule: CN1CCc2c(c3cc(Cl)ccc3n2CC(C)(O)c2ccc(F)cc2)C1 (stereo not drawn)
target.of.assay: histamine receptor H1 (Homo sapiens, UniProt P35367)
numeric.result: 73

molecule: C/C(=C\n1c2c(c3cc(F)ccc31)CN(C)CC2)c1ccncc1
target.of.assay: histamine receptor H1 (Homo sapiens, UniProt P35367)
numeric.result: 49

molecule: C/C(=C\n1c2c(c3cc(C)ccc31)CN(C)CC2)c1ccc(F)cc1
target.of.assay: histamine receptor H1 (Homo sapiens, UniProt P35367)
numeric.result: 81

molecule: CN1CCc2c(c3cc(Cl)ccc3n2/C=C(/c2ccc(F)cc2)C2CC2)C1
target.of.assay: histamine receptor H1 (Homo sapiens, UniProt P35367)
numeric.result: 83

molecule: CN1CCc2c(c3cc(Cl)ccc3n2/C=C(\c2ccc(F)cc2)C2CC2)C1
target.of.assay: histamine receptor H1 (Homo sapiens, UniProt P35367)
numeric.result: 72

molecule: C/C(=C\n1c2c(c3cc(Cl)ccc31)CN(C)CC2)c1ccc(Cl)cc1
target.of.assay: histamine receptor H1 (Homo sapiens, UniProt P35367)
numeric.result: 67

molecule: C/C(=C\n1c2c(c3cc(C)ccc31)CN(C)CC2)c1ccc(Cl)cc1
target.of.assay: histamine receptor H1 (Homo sapiens, UniProt P35367)
numeric.result: 54

molecule: C/C(=C/n1c2c(c3cc(C)ccc31)CN(C)CC2)c1ccncc1
target.of.assay: histamine receptor H1 (Homo sapiens, UniProt P35367)
numeric.result: 26

molecule: C/C(=C\n1c2c(c3cc(Cl)ccc31)CN(C)CC2)c1ccc(Cl)cc1Cl
target.of.assay: histamine receptor H1 (Homo sapiens, UniProt P35367)
numeric.result: 53

molecule: CN1CCc2c(c3cc(Cl)ccc3n2C/C(=C\CCO)c2ccc(F)cc2)C1
target.of.assay: histamine receptor H1 (Homo sapiens, UniProt P35367)
numeric.result: 38

molecule: C/C(=C\n1c2c(c3ccc(Cl)cc31)CN(C)CC2)c1ccncc1
target.of.assay: histamine receptor H1 (Homo sapiens, UniProt P35367)
numeric.result: 66

molecule: CN1CCc2c(c3cc(Cl)ccc3n2C/C(=C/CCO)c2ccc(F)cc2)C1
target.of.assay: histamine receptor H1 (Homo sapiens, UniProt P35367)
numeric.result: 65

* * *

target: human recombinant adrenergic α2B receptor (Homo sapiens, UniProt P18089); construct: expressed in transfected cells; host or cells: Chinese hamster ovary (CHO-K1) cells; assay: Adrenergic α2B radioligand binding ([3H]Rauwolscine); conditions: percent inhibition of specific binding; compound at 1 μM; read-out: Inhibition of ligand binding, Adrenergic α2B
Sequence (P18089 whole entry): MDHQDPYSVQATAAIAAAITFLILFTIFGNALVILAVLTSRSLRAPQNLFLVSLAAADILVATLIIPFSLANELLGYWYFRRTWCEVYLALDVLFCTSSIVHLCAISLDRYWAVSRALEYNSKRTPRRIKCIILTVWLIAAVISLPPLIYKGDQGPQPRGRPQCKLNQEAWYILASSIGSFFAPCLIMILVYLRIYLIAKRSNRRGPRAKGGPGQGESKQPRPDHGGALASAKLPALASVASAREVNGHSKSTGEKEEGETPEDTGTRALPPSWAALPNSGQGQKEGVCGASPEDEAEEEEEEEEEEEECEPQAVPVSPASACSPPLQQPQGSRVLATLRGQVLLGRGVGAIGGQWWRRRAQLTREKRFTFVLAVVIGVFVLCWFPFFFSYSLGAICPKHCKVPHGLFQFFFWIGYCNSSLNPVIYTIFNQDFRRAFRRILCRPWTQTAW
Listing of recorded inhibition at 1 µM by entry.

molecule: Cc1ccc2c(c1)c1c(n2CC(C)(O)c2ccc(F)cc2)CCN(C)C1 (stereo not drawn) [Compound 55]
target.of.assay: human recombinant adrenergic α2B receptor (Homo sapiens, UniProt P18089)
unit.tag: %
inhibition at 1 µM: 108
--
molecule: C/C(=C\n1c2c(c3cc(Cl)ccc31)CN(C)CC2)c1ccncc1 [Compound 90]
target.of.assay: human recombinant adrenergic α2B receptor (Homo sapiens, UniProt P18089)
unit.tag: %
inhibition at 1 µM: 104
--
molecule: C=C(Cn1c2c(c3cc(Cl)ccc31)CN(C)CC2)c1ccc(F)cc1 [Compound 128]
target.of.assay: human recombinant adrenergic α2B receptor (Homo sapiens, UniProt P18089)
unit.tag: %
inhibition at 1 µM: 120
--
molecule: Cc1ccc2c(c1)c1c(n2CC(O)(c2ccccc2)c2ccc(F)cc2)CCN(C)C1 (stereo not drawn) [Compound No. 176]
target.of.assay: human recombinant adrenergic α2B receptor (Homo sapiens, UniProt P18089)
unit.tag: %
inhibition at 1 µM: 95
--
molecule: C/C(=C\n1c2c(c3cc(Cl)ccc31)CN(C)CC2)c1ccccc1F [Compound 213]
target.of.assay: human recombinant adrenergic α2B receptor (Homo sapiens, UniProt P18089)
unit.tag: %
inhibition at 1 µM: 103
--
molecule: C/C(=C\n1c2c(c3cc(C)ccc31)CN(C)CC2)c1ccncc1 [Compound 88]
target.of.assay: human recombinant adrenergic α2B receptor (Homo sapiens, UniProt P18089)
unit.tag: %
inhibition at 1 µM: 107
--
molecule: Cc1ccc2c(c1)c1c(n2CC(O)c2ccc(C)nc2)CCN(C)C1 (stereo not drawn) [Compound 48]
target.of.assay: human recombinant adrenergic α2B receptor (Homo sapiens, UniProt P18089)
unit.tag: %
inhibition at 1 µM: 100
--
molecule: Cc1ccc2c(c1)c1c(n2CC(C)(O)c2ccc(C)nc2)CCN(C)C1 (stereo not drawn) [Compound 52]
target.of.assay: human recombinant adrenergic α2B receptor (Homo sapiens, UniProt P18089)
unit.tag: %
inhibition at 1 µM: 104
--
molecule: CCCCC(O)(Cn1c2c(c3cc(Cl)ccc31)CN(C)CC2)c1ccc(F)cc1 (stereo not drawn) [Compound 178]
target.of.assay: human recombinant adrenergic α2B receptor (Homo sapiens, UniProt P18089)
unit.tag: %
inhibition at 1 µM: 79

* * *

Listing of recorded inhibition at 1 µM by entry.
biological target: histamine receptor H1 (Homo sapiens); experiment: Histamine H1 radioligand binding ([3H]Pyrilamine); conditions: read-out: Histamine Binding (1 μM) H1, percent inhibition of specific binding, 1 μM

molecule: C/C(=C\n1c2c(c3cc(Cl)c(Cl)cc31)CN(C)CC2)c1ccc(F)cc1
inhibition at 1 µM / %: 90
--
molecule: C/C(=C\n1c2c(c3cc(C)ccc31)CN(CCCO)CC2)c1ccncc1
inhibition at 1 µM / %: 25
--
molecule: C/C(=C\n1c2c(c3cc(F)ccc31)CN(C)CC2)c1ccc(C)nc1
inhibition at 1 µM / %: 15
--
molecule: COc1ccc(/C(C)=C/n2c3c(c4cc(C)ccc42)CN(C)CC3)cn1
inhibition at 1 µM / %: 91
--
molecule: C=C(Cn1c2c(c3cc(OC)ccc31)CN(C)CC2)c1ccncc1
inhibition at 1 µM / %: 70
--
molecule: Cc1ccc2c(c1)c1c(n2C#Cc2ccncc2)CCN(C)C1
inhibition at 1 µM / %: 52
--
molecule: COc1ccc(C(C)(O)Cn2c3c(c4cc(C)ccc42)CN(C)CC3)cc1F (stereo not drawn)
inhibition at 1 µM / %: 91
--
molecule: CN1CCc2c(c3ccccc3n2CC(C)(O)c2ccncc2)C1 (stereo not drawn)
inhibition at 1 µM / %: 1
--
molecule: CNC(=O)c1ccc2c(c1)c1c(n2C#Cc2ccc(F)cc2)CCN(C)C1
inhibition at 1 µM / %: -1
--
molecule: C/C(=C\n1c2c(c3c(Cl)c(Cl)ccc31)CN(C)CC2)c1ccc(F)cc1
inhibition at 1 µM / %: 71
--
molecule: CC/C(=C/n1c2c(c3cc(Cl)ccc31)CN(C)CC2)c1ccncc1
inhibition at 1 µM / %: 31
--
molecule: CN1CCc2c(c3cc(Cl)ccc3n2C/C=C/c2ccc(F)cc2)C1
inhibition at 1 µM / %: 103
--
molecule: COc1ccc(/C(C)=C/n2c3c(c4cc(C)ccc42)CN(C)CC3)cc1
inhibition at 1 µM / %: 20
--
molecule: C/C(=C\n1c2c(c3ccc(C(F)(F)F)cc31)CN(C)CC2)c1ccc(C)nc1
inhibition at 1 µM / %: 12
--
molecule: C/C(=C\n1c2c(c3cc(OC(F)(F)F)ccc31)CN(C)CC2)c1ccncc1
inhibition at 1 µM / %: 8
--
molecule: C/C(=C\n1c2c(c3cc(C)ccc31)CN(C)CC2)c1cccc(F)c1
inhibition at 1 µM / %: 71
--
molecule: CN1CCc2c(c3cc(Cl)ccc3n2C#Cc2ccc(Cl)cc2)C1
inhibition at 1 µM / %: 40
--
molecule: CC(C)=C(Cn1c2c(c3cc(C)ccc31)CN(C)CC2)c1ccncc1
inhibition at 1 µM / %: 47

// data source = patent US8906925B2
